Protocol Text: IUF_NPC2-5_cytotoxicity_120hr: Cytotoxicity Assessment at 120 hours in the Leibniz Research Institute for Environmental Medicine (IUF) Neural Progenitor Cell Migration and Differentiation Assay (NPC2-5) (AID 2284307)
The source made the active and inactive calls. The calls were made as follows: active = hit-call score of the fitted dose curve at least 0.9, where 1 is the maximum; inconclusive = response in the unintended direction; inactive = score below 0.9.
Classes to choose from: True (active), False (inactive)

Worked cases, answers included:
>  <Molecule>
CC(C)[C@@H](Nc1ccc(C(F)(F)F)cc1Cl)C(=O)OC(C#N)c1cccc(Oc2ccccc2)c1 (some centres not stated)

>  <Assigned Label>
False

$$$$
>  <Molecule>
CS(=O)(=O)c1ccc(C(=O)C2C(=O)CCCC2=O)c(Cl)c1COCC(F)(F)F

>  <Assigned Label>
False

$$$$
>  <Molecule>
CC1(C)[C@H](C(=O)O[C@H](C#N)c2cccc(Oc3ccccc3)c2)[C@@H]1/C=C(\Cl)C(F)(F)F

>  <Assigned Label>
False

$$$$
>  <Molecule>
CNC(=O)CSP(=O)(OC)OC

>  <Assigned Label>
False

$$$$
>  <Molecule>
O=S1OC[C@@H]2[C@H](CO1)[C@]1(Cl)C(Cl)=C(Cl)[C@@]2(Cl)C1(Cl)Cl (some centres not stated)

>  <Assigned Label>
False

$$$$
>  <Molecule>
Cc1cc(C(F)(C(F)(F)F)C(F)(F)F)ccc1NC(=O)c1cccc(I)c1C(=O)NC(C)(C)CS(C)(=O)=O

>  <Assigned Label>
True

$$$$

Continue with the next molecule.
Ask | Could you please tell me the result logged for `CCOCn1c(-c2ccc(Cl)cc2)c(C#N)c(Br)c1C(F)(F)F` in this assay?
Reply | True

Entry source: PubChem BioAssay (EPA / NIEHS)
